Target: mouse Fpr3 (Fpr-rs1) (Mus musculus)
Construct: expressed in transfected cells; host or cells: HEK293T (DSMZ # ACC-635), transient transfection with jetPEI
Test: Heterologous expression / high-throughput Ca2+ imaging agonist screen and sequence selectivity of Fpr3 (Fig. 1a, 2c-e, 2g, 2i)
Type: cell-based
Conditions: 30 µM; mean of n = 3 experiments in triplicate (n = 5 for f-MKKFRW); Fpr3 + Gα16 HEK293T, Fluo-4/AM, FLIPR, buffer C1 pH 7.2; mock 0.059-0.060
readout kind: Ca2+ response, mean

                                   substance      result
 0    f-MLNKKKRGN [synthesized fMet peptide]  0.058 ∆F/F
 1       f-MVKIIF [synthesized fMet peptide]  0.054 ∆F/F
 2       f-MKKFLL [synthesized fMet peptide]  0.050 ∆F/F
 3       f-MMKMEG [synthesized fMet peptide]  0.040 ∆F/F
 4       f-MEFVAK [synthesized fMet peptide]  0.076 ∆F/F
 5       f-MKTSIR [synthesized fMet peptide]  0.049 ∆F/F
 6       f-MLKIIL [synthesized fMet peptide]  0.057 ∆F/F
 7       f-MPKLNR [synthesized fMet peptide]  0.033 ∆F/F
 8       f-MNIFTT [synthesized fMet peptide]  0.065 ∆F/F
 9    f-MKKLLNKIV [synthesized fMet peptide]  0.054 ∆F/F
10       f-MKKFYS [synthesized fMet peptide]  0.056 ∆F/F
11       f-MLFKYS [synthesized fMet peptide]  0.048 ∆F/F
12       f-MEQQNK [synthesized fMet peptide]  0.050 ∆F/F
13       f-MAYPFQ [synthesized fMet peptide]  0.061 ∆F/F
14       f-MKKWRW [synthesized fMet peptide]  0.063 ∆F/F
15       f-MKFCTA [synthesized fMet peptide]  0.080 ∆F/F
16       f-MVMKFK [synthesized fMet peptide]  0.050 ∆F/F
17       f-MKKIML [synthesized fMet peptide]  0.055 ∆F/F
18       f-MTNKIS [synthesized fMet peptide]  0.049 ∆F/F
19       f-MPQLDT [synthesized fMet peptide]  0.058 ∆F/F
20    f-MKKISKFLP [synthesized fMet peptide]  0.072 ∆F/F
21       f-MTHQTH [synthesized fMet peptide]  0.077 ∆F/F
22  f-MGFFIS [bacterial signal peptide fragment]  0.048 ∆F/F
23       f-MVPISI [synthesized fMet peptide]  0.044 ∆F/F
24       f-MINKKI [synthesized fMet peptide]  0.045 ∆F/F
25  f-MNKKLL [f-MNKLL, synthesized fMet peptide]  0.039 ∆F/F
26       f-MTNMRK [synthesized fMet peptide]  0.060 ∆F/F
27    f-MKKYKRLLL [synthesized fMet peptide]  0.065 ∆F/F
28       f-MKKFNI [synthesized fMet peptide]  0.044 ∆F/F
29  f-MKNFKG [synthesized fMet peptide, bacterial signal peptide fragment]  0.052 ∆F/F
30       f-MKKHRW [synthesized fMet peptide]  0.054 ∆F/F
31      f-MFIYYCK [synthesized fMet peptide]  0.042 ∆F/F
32       f-MNPITL [synthesized fMet peptide]  0.062 ∆F/F
33    f-MAQDIISTI [synthesized fMet peptide]  0.075 ∆F/F
34    f-MKKTLSLKN [synthesized fMet peptide]  0.058 ∆F/F
35       f-MKKNLV [synthesized fMet peptide]  0.053 ∆F/F
36    f-MEFVAKLFK [synthesized fMet peptide]  0.062 ∆F/F
37       f-MAMKKL [synthesized fMet peptide]  0.059 ∆F/F
38       f-MLFKYL [synthesized fMet peptide]  0.056 ∆F/F
39       f-MPSTFF [synthesized fMet peptide]  0.065 ∆F/F

* * *

Target: mouse Fpr3 (Fpr-rs1) (Mus musculus, UniProt O08790)
Construct: expressed in transfected cells; host or cells: HEK293T (DSMZ # ACC-635), transient transfection with jetPEI
Sequence (O08790 whole entry): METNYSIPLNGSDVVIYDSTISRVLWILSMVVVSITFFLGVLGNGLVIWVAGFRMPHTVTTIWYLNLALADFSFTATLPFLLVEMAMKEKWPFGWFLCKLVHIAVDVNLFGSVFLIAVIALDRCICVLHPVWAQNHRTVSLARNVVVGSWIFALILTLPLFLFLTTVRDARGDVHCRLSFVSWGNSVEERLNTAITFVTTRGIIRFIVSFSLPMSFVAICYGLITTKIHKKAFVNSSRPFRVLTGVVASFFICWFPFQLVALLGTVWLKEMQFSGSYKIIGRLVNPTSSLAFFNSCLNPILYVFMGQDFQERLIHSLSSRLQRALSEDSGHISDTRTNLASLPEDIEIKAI
Experiment: Heterologous expression / high-throughput Ca2+ imaging agonist screen and sequence selectivity of Fpr3 (Fig. 1a, 2c-e, 2g, 2i)
Type: cell-based
Conditions: 3 µM; mean of n = 3 experiments in triplicate (n = 5 for f-MKKFRW); Fpr3 + Gα16 HEK293T, Fluo-4/AM, FLIPR, buffer C1 pH 7.2; mock 0.059-0.060
readout kind: Ca2+ response, mean

>>> df
                                   substance         readout_kind      result
 0       f-MPKLNR [synthesized fMet peptide]  Ca2+ response, mean  0.048 ∆F/F
 1    f-MAQDIISTI [synthesized fMet peptide]  Ca2+ response, mean  0.079 ∆F/F
 2       f-MPQLDT [synthesized fMet peptide]  Ca2+ response, mean  0.060 ∆F/F
 3    f-MKKLLNKIV [synthesized fMet peptide]  Ca2+ response, mean  0.056 ∆F/F
 4    f-MKKISKFLP [synthesized fMet peptide]  Ca2+ response, mean  0.055 ∆F/F
 5       f-MNPITL [synthesized fMet peptide]  Ca2+ response, mean  0.053 ∆F/F
 6       f-MAMKKL [synthesized fMet peptide]  Ca2+ response, mean  0.058 ∆F/F
 7       f-MEFVAK [synthesized fMet peptide]  Ca2+ response, mean  0.051 ∆F/F
 8    f-MKKTLSLKN [synthesized fMet peptide]  Ca2+ response, mean  0.068 ∆F/F
 9       f-MVKIIF [synthesized fMet peptide]  Ca2+ response, mean  0.045 ∆F/F
10       f-MLFKYS [synthesized fMet peptide]  Ca2+ response, mean  0.054 ∆F/F
11  f-MGFFIS [bacterial signal peptide fragment]  Ca2+ response, mean  0.055 ∆F/F
12       f-MKKFNI [synthesized fMet peptide]  Ca2+ response, mean  0.053 ∆F/F
13       f-MLFKYL [synthesized fMet peptide]  Ca2+ response, mean  0.053 ∆F/F
14       f-MNIFTT [synthesized fMet peptide]  Ca2+ response, mean  0.059 ∆F/F
15       f-MINKKI [synthesized fMet peptide]  Ca2+ response, mean  0.058 ∆F/F
16       f-MKKFLL [synthesized fMet peptide]  Ca2+ response, mean  0.052 ∆F/F
17       f-MKKFYS [synthesized fMet peptide]  Ca2+ response, mean  0.058 ∆F/F
18      f-MFIYYCK [synthesized fMet peptide]  Ca2+ response, mean  0.053 ∆F/F
19    f-MKKYKRLLL [synthesized fMet peptide]  Ca2+ response, mean  0.074 ∆F/F
20       f-MVMKFK [synthesized fMet peptide]  Ca2+ response, mean  0.053 ∆F/F
21    f-MLNKKKRGN [synthesized fMet peptide]  Ca2+ response, mean  0.056 ∆F/F
22       f-MLKIIL [synthesized fMet peptide]  Ca2+ response, mean  0.057 ∆F/F
23       f-MKKHRW [synthesized fMet peptide]  Ca2+ response, mean  0.061 ∆F/F
24       f-MKFCTA [synthesized fMet peptide]  Ca2+ response, mean  0.034 ∆F/F
25       f-MAYPFQ [synthesized fMet peptide]  Ca2+ response, mean  0.059 ∆F/F
26       f-MPSTFF [synthesized fMet peptide]  Ca2+ response, mean  0.063 ∆F/F

These entries and their values trace back to paper PMC6814738.
